- Test system: SK‐N‐BE(2)C neuroblastoma cell line
- measurement_protocol: SK-N-BE(2)C cell viability assay (CellTiter-Blue)
- Assay type: cell-based
- condition_context: SK-N-BE(2)C cells, 72 h
reported_metric: pIC50
// returns pIC50 (minus log10 of molar concentration), number only

Prompt line: Fill in the blank: the reported pIC50 of O=C(NO)c1ccc(Cc2c[nH]c3ccc(C(=O)NO)cc23)cc1 [Compound 3d] is ____.
Response line: 5.15

* * *

- system_tested: HDAC8 (Homo sapiens, UniProt Q9BY41)
- Construct: purchased BPS Bioscience 50008
- Sequence (Q9BY41 1-377): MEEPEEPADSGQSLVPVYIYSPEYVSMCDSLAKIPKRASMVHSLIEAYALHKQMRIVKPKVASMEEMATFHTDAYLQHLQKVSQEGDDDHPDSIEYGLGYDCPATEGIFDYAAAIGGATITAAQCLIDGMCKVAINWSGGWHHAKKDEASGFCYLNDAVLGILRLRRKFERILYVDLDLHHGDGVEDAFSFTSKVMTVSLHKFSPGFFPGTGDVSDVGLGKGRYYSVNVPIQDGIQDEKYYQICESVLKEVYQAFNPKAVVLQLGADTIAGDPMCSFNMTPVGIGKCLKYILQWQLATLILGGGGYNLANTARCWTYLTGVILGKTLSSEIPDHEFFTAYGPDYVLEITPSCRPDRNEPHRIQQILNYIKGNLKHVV
- measurement_protocol: HDAC-Glo I/II enzymatic assay, HDAC8
- Assay type: biochemical
- condition_context: read-out: HDAC8 pIC50 (converted)
reported_metric: IC50

Prompt line: Fill in the blank: the reported IC50 of CN(C)Cc1nn(Cc2ccc(C(=O)NO)cc2)c2cc(C(=O)NO)ccc12 is ____.
Response line: 0.0891 µM

Prompt line: Fill in the blank: the reported IC50 of CN1CCc2c(c3ccc(C(=O)NO)cc3n2Cc2ccc(C(=O)NO)cc2)C1 is ____.
Response line: 0.513 µM

Prompt line: Fill in the blank: the reported IC50 of O=C(NO)c1ccc(Cn2ncc3ccccc32)cc1 is ____.
Response line: 0.389 µM

Prompt line: Fill in the blank: the reported IC50 of COc1ccc(Cn2ncc3ccc(C(=O)NO)cc32)cc1 is ____.
Response line: 0.0209 µM

Prompt line: Fill in the blank: the reported IC50 of O=C(NO)c1ccc(Cc2c[nH]c3ccc(C(=O)NO)cc23)cc1 is ____.
Response line: 0.0977 µM

Prompt line: Fill in the blank: the reported IC50 of O=C(NO)c1ccc(Cn2ccc3ccc(C(=O)NO)cc32)cc1 is ____.
Response line: 0.0676 µM

Prompt line: Fill in the blank: the reported IC50 of CN(C)CCn1cc(Cc2ccc(C(=O)NO)cc2)c2cc(C(=O)NO)ccc21 is ____.
Response line: 0.0661 µM

Prompt line: Fill in the blank: the reported IC50 of O=C(NO)c1ccc(Cn2ncc3ccc(C(=O)NO)cc32)cc1 is ____.
Response line: 0.0427 µM

Prompt line: Fill in the blank: the reported IC50 of COc1ccc(Cc2cn(CCN(C)C)c3ccc(C(=O)NO)cc23)cc1 is ____.
Response line: 0.0437 µM

Prompt line: Fill in the blank: the reported IC50 of COc1ccc(Cn2nc(CN(C)C)c3ccc(C(=O)NO)cc32)cc1 is ____.
Response line: 0.0295 µM

Prompt line: Fill in the blank: the reported IC50 of O=C(NO)c1ccc(Cn2ccc3ccccc32)cc1 is ____.
Response line: 0.38 µM

Prompt line: Fill in the blank: the reported IC50 of CN(C)Cc1nn(Cc2ccc(C(=O)NO)cc2)c2ccccc12 is ____.
Response line: 0.851 µM

Prompt line: Fill in the blank: the reported IC50 of CN(C)Cc1cn(Cc2ccc(C(=O)NO)cc2)c2cc(C(=O)NO)ccc12 is ____.
Response line: 0.166 µM

Prompt line: Fill in the blank: the reported IC50 of COc1ccc(Cn2cc(CN(C)C)c3ccc(C(=O)NO)cc32)cc1 is ____.
Response line: 0.049 µM

Prompt line: Fill in the blank: the reported IC50 of COc1ccc(Cn2c3c(c4ccc(C(=O)NO)cc42)CN(C)CC3)cc1 is ____.
Response line: 0.141 µM

Prompt line: Fill in the blank: the reported IC50 of COc1ccc(Cc2c[nH]c3ccc(C(=O)NO)cc23)cc1 is ____.
Response line: 0.0692 µM

Prompt line: Fill in the blank: the reported IC50 of CN(C)Cc1cn(Cc2ccc(C(=O)NO)cc2)c2ccccc12 is ____.
Response line: 0.955 µM

Reference for the values: paper PMC7335359
